Test: Volume of distribution in beagle dog at 1 mg/kg, iv by LC-MS/MS method
Format: ADME, organism-based, Canis lupus familiaris
Settings: in vivo

[
  {
    "item-smiles": "CS(=O)(=O)O.Cc1cc(Nc2ncc(Cl)c(Nc3cn(C)nc3S(=O)(=O)C(C)C)n2)c(OC(C)C)cc1C1CCN(C)CC1",
    "Vd, L/kg": 11
  }
]

---

Test: Cmax in Sprague-Dawley rat at 5 mg/kg, po by LC-MS/MS method
Type: ADME, organism-based
Parameters: dose 5 mg/kg, route oral
Conditions: in vivo

[
  {
    "item-smiles": "CS(=O)(=O)O.Cc1cc(Nc2ncc(Cl)c(Nc3cn(C)nc3S(=O)(=O)C(C)C)n2)c(OC(C)C)cc1C1CCN(C)CC1",
    "units": "ng/mL",
    "Cmax": 199
  }
]

Provenance of the data: ChEMBL document CHEMBL3603807
